target: HsAChE (Homo sapiens, UniProt P22303); construct: human (Homo sapiens) erythrocyte AChE (HsAChE); assay: Kinetic study of HsAChE inhibition (Lineweaver-Burk); conditions: read-out: competitive component of inhibition constant (Ki), HsAChE
Sequence (P22303 32-617 isoform P22303-2 limits assumed): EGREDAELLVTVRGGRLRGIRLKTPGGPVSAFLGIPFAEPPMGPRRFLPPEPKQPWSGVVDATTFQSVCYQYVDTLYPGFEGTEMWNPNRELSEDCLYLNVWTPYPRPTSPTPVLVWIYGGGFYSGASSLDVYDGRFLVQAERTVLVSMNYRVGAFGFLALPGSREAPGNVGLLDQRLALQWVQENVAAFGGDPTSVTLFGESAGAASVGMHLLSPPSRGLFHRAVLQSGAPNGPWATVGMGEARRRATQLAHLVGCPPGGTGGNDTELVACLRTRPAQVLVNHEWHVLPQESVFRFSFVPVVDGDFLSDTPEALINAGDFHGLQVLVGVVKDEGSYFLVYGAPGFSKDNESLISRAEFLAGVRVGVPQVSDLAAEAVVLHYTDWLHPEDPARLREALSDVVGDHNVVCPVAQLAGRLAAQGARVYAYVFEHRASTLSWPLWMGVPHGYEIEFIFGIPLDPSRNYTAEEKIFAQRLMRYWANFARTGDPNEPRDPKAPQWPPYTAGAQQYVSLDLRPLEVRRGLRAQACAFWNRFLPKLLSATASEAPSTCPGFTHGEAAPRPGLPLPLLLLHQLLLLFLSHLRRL
measured quantity: Ki (nM)
Write the answer as a number in nM, unit excluded.

Could you tell me which Ki is on file for C=C[c-]1cccc1.[Fe+2].c1ccc2nc(-[c-]3cccc3)ccc2c1 [7b, 1-(Quinolin-2-yl)-1′-Vinylferrocene] ?
1920

* * *

Quick reference: Exp. FRAP, TE of the listed items.
test: Ferric reducing antioxidant power (FRAP) assay; settings: Water; Table 4;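 further: same experimental FRAP TE values reprinted in Table 4 beside calculated BDE and IP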

Could you tell me which Exp. FRAP, TE is on file for [Fe+2].c1cc[cH-]c1.c1ccc2[nH+]c(-[c-]3cccc3)ccc2c1 ?
2.21 ± 0.01

Could you tell me which Exp. FRAP, TE is on file for C=C(C)[c-]1cccc1.[Fe+2].c1ccc2[nH+]c(-[c-]3cccc3)ccc2c1 ?
3.13 ± 1.7

Could you tell me which Exp. FRAP, TE is on file for C=C[c-]1cccc1.[Fe+2].c1ccc(-[c-]2cccc2)[nH+]c1 ?
2.13 ± 0.03

Could you tell me which Exp. FRAP, TE is on file for [Fe+2].c1cc[cH-]c1.c1ccc(-[c-]2cccc2)[nH+]c1 ?
2.05 ± 0.02

Others:
Could you tell me which Exp. FRAP, TE is on file for C=C(C)[c-]1cccc1.[Fe+2].c1ccc(-[c-]2cccc2)[nH+]c1 ?
2.85 ± 1.3
